# Tested on: DU-145 prostate
# test details: NCI-60 one-dose screen, 48 h (100 = growth as untreated, 0 = no growth, -100 = all killed)
# experimental conditions: 10 µM unless noted
This is part of a sample that, as a whole, favours compounds with a hit. Of some 83,000 tested, about 20% had one in any assay.
measurement kind: growth (%)
Please state the figure in %; there is no need to write the unit.

Query: Need growth, item `O=C(C1=Cc2cc3ccccc3n2Cc2cnnn21)c1ccc(F)cc1`
Response: 97.7

Query: Need growth, item `COc1ccc2c(c1)CC[C@@H]1[C@@H]2CC[C@]2(C)c3c(cc(C#N)c4c3sc3ccccc34)C[C@@H]12`
Response: 121

Query: Need growth, item `C=C(C)[C@@H]1CC[C@]2(C(=O)Nc3ccccn3)CC[C@]3(C)[C@H](CC[C@@H]4[C@@]5(C)CCCNC(C)(C)[C@@H]5CC[C@]43C)[C@@H]12`
Response: 34.8

Query: Need growth, item `N[C@@H]1CCC[C@H]1NCCCCN1C(=O)c2cccc3cc([N+](=O)[O-])cc(c23)C1=O`
Response: 22.2

Query: Need growth, item `O=C1Nc2ccccc2/C1=N/N1C(=O)CN(CCCl)C1=O`
Response: 119

Query: Need growth, item `COCCn1cc(-c2nc(-c3c[nH]c4ncccc34)cs2)c2ccccc21`
Response: 85.5

Query: Need growth, item `Cc1ccccc1N1CCN(C(=S)c2ccccc2)CC1`
Response: 114

Query: Need growth, item `CSc1ccc(N2C(=N)C(=S)N(c3ccc(C)cc3)C2=O)cc1`
Response: 104

Query: Need growth, item `O=c1cc(-c2ccccc2)nc(SCc2nc3cc(Cl)c(Cl)cc3[nH]2)[nH]1`
Response: 106

====

# Tested on: NCI-H23 lung
# test details: NCI-60 one-dose screen, 48 h (100 = growth as untreated, 0 = no growth, -100 = all killed)
# experimental conditions: 10 µM unless noted
About 83,000 compounds went through this panel and 20% of them were active in at least one assay; those are over-represented in the sample as a whole.
measurement kind: growth (%)
Please state the figure in %; there is no need to write the unit.

Query: Need growth, item `COc1cc(/C=C/C(=O)c2cc(OC)c(OC)c(OC)c2)ccc1Oc1nc2c(c(=O)n(C)c(=O)n2C)n1C`
Response: -51.1

Query: Need growth, item `O=C(N/N=C/c1ccc(Cl)cc1)c1ccc(NC(=O)c2ccccn2)cc1`
Response: 54.5

Query: Need growth, item `COc1ccc(NC(=O)c2ccc(Nc3ncnc4c3cnn4-c3cccc(F)c3)cc2)cc1`
Response: 103

Query: Need growth, item `C=C1C(=O)O[C@H]2[C@H]1CC/C(COC(=O)/C=C\C(=O)NCc1ccc(Cn3c(=O)sn(CCCCl)c3=O)cc1)=C\CC[C@@]1(C)O[C@@H]21`
Response: 84.1

Query: Need growth, item COc1cc2c(c(OC)c1OC)CCC(c1cccc(C(=O)Nc3ccc(Br)cc3)c1)O2 (centres undefined)
Response: 75.8

Query: Need growth, item `Cc1nn(C)c2ncnc(N/N=C/c3cccc(O)c3O)c12`
Response: 20.8

Query: Need growth, item `C#Cc1cccc(Nc2ncnc3cc(NC(=O)CCl)ccc23)c1`
Response: -63.5

Query: Need growth, item `Cc1nc2ccccc2c(/C=C/c2ccc(F)cc2)c1C(=O)/C=C/c1ccccc1`
Response: 20.7

Query: Need growth, item `CC(C)(C)CC(C)(C)Nc1c(-c2c(O)c3ccccc3oc2=O)nc2sc3ccccc3n12`
Response: 44.1

Query: Need growth, item CCn1cc(C(=O)N/N=C/c2cccc(F)c2)c(=O)c2cc(F)c(N3CCNC(C)C3)c(F)c21 (centres undefined)
Response: 76.2

Query: Need growth, item `Cc1[nH]c(C(=O)Nc2ccccc2OC2CCN(CCN3CCOCC3)CC2)c(Cl)c1Cl`
Response: 97.6

Query: Need growth, item `Oc1c(I)cc(I)cc1CN(Cc1ccccn1)Cc1ccccn1`
Response: 25.6

Query: Need growth, item C=C(C)[C@@H]1CC[C@]2(COC3CCCCO3)CC[C@]3(C)[C@H](CC[C@@H]4[C@@]5(C)C=C(C=O)C(=O)C(C)(C)[C@@H]5CC[C@]43C)[C@@H]12 (some centres undefined)
Response: -58.9

Query: Need growth, item `Nc1[nH]nc2nc(-c3ccccc3)n3c4ccccc4nc3c12`
Response: 99.9

Query: Need growth, item `Nc1c(Cl)cc(/C=C2\C=Cc3ccccc32)cc1Cl`
Response: 97.4

Query: Need growth, item `O=S(=O)(Nc1cc(F)cc(F)c1)c1ccc(-c2cnc(C3CC3)o2)cc1`
Response: 63.7

Query: Need growth, item `CCN(CC)CCOc1ccc2c(-c3ccccc3)c(-c3ccc(OC)cc3)c(=O)oc2c1`
Response: 70.3

Query: Need growth, item `CSc1ccc2c3c(n(C[C@H](O)CO)c(=O)c2c1)-c1ccccc1C3=O`
Response: 38.1

Query: Need growth, item `O=C(O)CCCCCCCCCCN1C(=O)/C(=C2/C(=O)N(CC(=O)O)c3ccc(Br)cc32)SC1=S`
Response: 92.8

Source of measurements: PubChem BioAssay (NCI)
